Below, each of the compounds is paired with its reported Cholesterol-free value.
- System: NCI-H292 lung cancer cells
- test name: FDA drug screening, complete media vs cholesterol-free media without statin (TABLE 1)
- Format: cell-based, human
- measurement parameters: NCI-H292 cells, cholesterol-free media without statin, FDA drug library screen
Structures can show the parent of a compound that is named as a salt.
Note: the reply should be a number with no unit written.

Here are 5 compounds together with their reported answers.
NCCC[C@H](NC(=O)[C@@H]1CCCN1C(=O)[C@@H]1CSSC[C@H](N)C(=O)N[C@@H](Cc2ccc(O)cc2)C(=O)N[C@@H](Cc2ccccc2)C(=O)N[C@@H](CCC(N)=O)C(=O)N[C@@H](CC(N)=O)C(=O)N1)C(=O)NCC(N)=O = 1.024
Cc1cn([C@H]2O[C@@H](CO)[C@H](O)[C@H]2F)c(=O)[nH]c1=O = 0.975
Cc1cn([C@H]2C[C@H](N=[N+]=[N-])[C@@H](CO)O2)c(=O)[nH]c1=O = 1.211
CCCN1CCCC[C@H]1C(=O)Nc1c(C)cccc1C [Ropivacaine (hydrochloride)] = 1.2
O=c1c(-c2ccc(O)cc2)coc2cc(O)ccc12 = 1.1

Reported Cholesterol-free ( CC(C)N(CCNC(=O)CN1CCCC1=O)C(C)C ) = 1.059

Reported Cholesterol-free ( C[C@@H]1C[C@H]2[C@@H]3CCC4=CC(=O)C=C[C@]4(C)[C@@]3(F)[C@@H](O)C[C@]2(C)[C@@]1(O)C(=O)CO ) = 0.7411

====

- Tested on: NCI-H292 lung cancer cells
- test name: FDA drug screening, complete media vs cholesterol-free media without statin (TABLE 1)
- Type: cell-based, human
- measurement parameters: NCI-H292 cells in complete media
Structures can show the parent of a compound that is named as a salt.
Decision: Complete beneath 0.9 gives met; Complete meeting or exceeding 0.9 gives not met.

COc1c2occc2cc2ccc(=O)oc12 = met

In plain terms, does Cc1ccc(C(=O)Nc2ccc(S(=O)(=O)O)c3cc(S(=O)(=O)O)cc(S(=O)(=O)O)c23)cc1NC(=O)c1cccc(NC(=O)Nc2cccc(C(=O)Nc3cc(C(=O)Nc4ccc(S(=O)(=O)O)c5cc(S(=O)(=O)O)cc(S(=O)(=O)O)c45)ccc3C)c2)c1 [Suramin (sodium salt)] come in under 0.9 for Complete?
not met

In plain terms, does O=C(O)CCC(=O)c1ccc(-c2ccccc2)cc1 come in under 0.9 for Complete?
met

====

- Tested on: NCI-H292 lung cancer cells
- test name: FDA drug screening, complete media vs cholesterol-free media without statin (TABLE 1)
- Type: cell-based, human
- measurement parameters: NCI-H292 cells, cholesterol-free media without statin
Below, each of the compounds is paired with its reported Cholesterol-free value.
Note: the reply should be a number with no unit written.

Here are 2 compounds together with their reported answers.
C=C(c1ccc(C(=O)O)cc1)c1cc2c(cc1C)C(C)(C)CCC2(C)C = 1.341
O=Cc1ccc(O[C@@H]2O[C@H](CO)[C@@H](O)[C@@H](O)[C@H]2O)cc1 = 1.202

// next entry
Reported Cholesterol-free ( Nc1c(Br)cc(Br)cc1CN[C@H]1CC[C@H](O)CC1 [Ambroxol] ) = 1.134

====

- Tested on: NCI-H292 lung cancer cells
- test name: FDA drug screening, complete media vs cholesterol-free media without statin (TABLE 1)
- Assay type: cell-based, human
- measurement parameters: NCI-H292 cells in complete media
reported property: Complete
Note: the reply should be a number with no unit written.

Here are 2 compounds together with their reported answers.
CCc1oc2ccccc2c1C(=O)c1cc(Br)c(O)c(Br)c1 = 0.9837
O=C(O)c1ccccc1OP(=O)(O)O = 1.005

// next entry
Measured on NCI-H292 lung cancer cells, CC(C)(S)[C@@H](N)C(=O)O has a documented Complete of 1.005

====

- Tested on: NCI-H292 lung cancer cells
- test name: FDA drug screening, complete media vs cholesterol-free media with simvastatin (TABLE 2)
- Type: cell-based, human
- measurement parameters: complete media minus cholesterol-free media + simvastatin; >0 enhanced anti-cancer activity, about 0 neutral, <0 antagonist
Structures can show the parent of a compound that is named as a salt.
Decision: Difference compared against 0.1; not below it gives met, below it gives not met.

Solved entries:
CCCCOc1cc(C(=O)OCCN(CC)CC)ccc1N [Oxybuprocaine hydrochloride] = met
CC(C)c1ccc2oc3nc(N)c(C(=O)O)cc3c(=O)c2c1 = met
CCCCC(=O)OCC(=O)[C@]1(O)Cc2c(O)c3c(c(O)c2[C@@H](O[C@H]2C[C@H](NC(=O)C(F)(F)F)[C@H](O)[C@H](C)O2)C1)C(=O)c1c(OC)cccc1C3=O = met
CN(C)CCN(Cc1ccc(Cl)cc1)c1ccccn1 [Chloropyramine hydrochloride] = not met
O=C1NCCN1CCN1CCC(c2cn(-c3ccc(F)cc3)c3ccc(Cl)cc23)CC1 = met

Threshold query (Difference >= 0.1) on N=C1CCCN1Cc1nc(O)nc(O)c1Cl [Tipiracil (hydrochloride)]
met

Threshold query (Difference >= 0.1) on CCOC(=O)C1=C(COCCN)NC(C)=C(C(=O)OC)C1c1ccccc1Cl (stereo not drawn)
met

Threshold query (Difference >= 0.1) on Cc1[nH]c(=O)c(C#N)cc1-c1ccncc1
met

Threshold query (Difference >= 0.1) on CC(CCc1ccccc1)NC(C)C(O)c1ccc(O)cc1 (stereo not drawn) [Nylidrin (hydrochloride)]
met

Threshold query (Difference >= 0.1) on CCN(CCO)CCCC(C)Nc1ccnc2cc(Cl)ccc12 (stereo not drawn) [Hydroxychloroquine sulfate]
not met

Threshold query (Difference >= 0.1) on CCCC(=O)O[C@]1(C(=O)COC(=O)CC)CC[C@H]2[C@@H]3CCC4=CC(=O)CC[C@]4(C)[C@H]3[C@@H](O)C[C@@]21C [Hydrocortisone buteprate]
not met

====

- Tested on: NCI-H292 lung cancer cells
- test name: FDA drug screening, complete media vs cholesterol-free media without statin (TABLE 1)
- Assay type: cell-based, human
Where a name gives a salt, the structure may show the parent alone.
reported property: Complete
Note: the reply should be a number with no unit written.

Reported Complete ( O.O.O=C([O-])CC(O)(CC(=O)[O-])C(=O)[O-].[Na+].[Na+].[Na+] [Sodium citrate (dihydrate)] ) = 0.9967

Reported Complete ( CC(C)Cn1cnc2c(N)nc3ccccc3c21 [Imiquimod (hydrochloride)] ) = 1.16

Reported Complete ( N[C@@H]1C[C@H]1c1ccccc1.N[C@@H]1C[C@H]1c1ccccc1.O=S(=O)(O)O [Tranylcypromine (hemisulfate)] ) = 0.8249

Reported Complete ( CC(=O)O[C@H]1C[C@@H]2CC[C@@H]3[C@H](CC[C@@]4(C)[C@H]3C[C@H]([N+]3(C)CCCCC3)[C@@H]4OC(C)=O)[C@@]2(C)C[C@@H]1N1CCCCC1.[Br-] [Vecuronium (bromide)] ) = 0.9438

Reported Complete ( CS(=O)(=O)c1cc(F)cc2c3c(n(Cc4ccc(Cl)cc4)c12)[C@@H](CC(=O)O)CC3 ) = 1.092

Reported Complete ( CN(CCN1CCC(OC(=O)Nc2ccccc2-c2ccccc2)CC1)C(=O)c1ccc(CN2CCC(C(N)=O)CC2)cc1 ) = 0.9642

====

Below, each of the compounds is paired with its reported Cholesterol-free media + simvastatin (0.04 μM) value.
- Test system: NCI-H292 lung cancer cells
- test name: FDA drug screening, complete media vs cholesterol-free media with simvastatin (TABLE 2)
- Assay type: cell-based, human
- measurement parameters: NCI-H292 cells, FDA drug library screen, cholesterol-free media with simvastatin 0.04 μM
Where a name gives a salt, the structure may show the parent alone.

CNNCc1ccc(C(=O)NC(C)C)cc1 [Procarbazine (Hydrochloride)] = 0.7556
CCc1cccc2c3c([nH]c12)C(CC)(CC(=O)O)OCC3 (stereo not drawn) = 0.9939
COc1ccc(-c2cc(C(F)F)nn2-c2ccc(S(N)(=O)=O)cc2)cc1F = 1.651
Oc1c(I)cc(I)c2cccnc12 [Diiodohydroxyquinoline] = 0.94
N#C[C@@H]1CCCN1C(=O)CNC12CC3CC(CC(O)(C3)C1)C2 = 1.588

Measured on NCI-H292 lung cancer cells, CN(C)CC/C=C1/c2ccccc2Sc2ccc(Cl)cc21 has a documented Cholesterol-free media + simvastatin (0.04 μM) of 2.022

====

- Test system: NCI-H292 lung cancer cells
- test name: FDA drug screening, complete media vs cholesterol-free media with simvastatin (TABLE 2)
- Type: cell-based, human
- measurement parameters: NCI-H292 cells, FDA drug library screen, complete media
Structures can show the parent of a compound that is named as a salt.
Decision: Complete Media compared against 1; not below it gives satisfied, below it gives not satisfied.

Solved entries:
C[C@H](CCC(=O)O)[C@H]1CC[C@H]2[C@@H]3[C@@H](O)C[C@@H]4C[C@H](O)CC[C@]4(C)[C@H]3CC[C@]12C = satisfied
CCOC(=O)c1ccc(O)cc1 = satisfied
CN(C)CCCOc1nn(Cc2ccccc2)c2ccccc12 [Benzydamine (hydrochloride)] = satisfied
O=c1oc2ccccc2c(O)c1Cc1c(O)c2ccccc2oc1=O = satisfied
CSc1nc2cc(Cl)c(Oc3cccc(Cl)c3Cl)cc2[nH]1 = satisfied

Threshold query (Complete Media >= 1) on CN(CCOc1ccc(NS(C)(=O)=O)cc1)CCc1ccc(NS(C)(=O)=O)cc1 [Dofetilide]
not satisfied

Threshold query (Complete Media >= 1) on O=c1c(-c2ccc(O)cc2)coc2cc(O)ccc12
satisfied

Threshold query (Complete Media >= 1) on N#CC[C@H](C1CCCC1)n1cc(-c2ncnc3[nH]ccc23)cn1
not satisfied

Threshold query (Complete Media >= 1) on CC1(C)CCC(C)(C)c2cc(NC(=O)c3ccc(C(=O)O)cc3)ccc21
not satisfied

Threshold query (Complete Media >= 1) on C#C[C@]1(O)CC[C@H]2[C@@H]3CCC4=Cc5oncc5C[C@]4(C)[C@H]3CC[C@@]21C
not satisfied

Threshold query (Complete Media >= 1) on Cc1ccc(Nc2nccc(N(C)c3ccc4c(C)n(C)nc4c3)n2)cc1S(N)(=O)=O
satisfied
